studyTarget: T1, plasma-derived human activated protein C (APC) (UniProt P04070 43-461)
T1 chain: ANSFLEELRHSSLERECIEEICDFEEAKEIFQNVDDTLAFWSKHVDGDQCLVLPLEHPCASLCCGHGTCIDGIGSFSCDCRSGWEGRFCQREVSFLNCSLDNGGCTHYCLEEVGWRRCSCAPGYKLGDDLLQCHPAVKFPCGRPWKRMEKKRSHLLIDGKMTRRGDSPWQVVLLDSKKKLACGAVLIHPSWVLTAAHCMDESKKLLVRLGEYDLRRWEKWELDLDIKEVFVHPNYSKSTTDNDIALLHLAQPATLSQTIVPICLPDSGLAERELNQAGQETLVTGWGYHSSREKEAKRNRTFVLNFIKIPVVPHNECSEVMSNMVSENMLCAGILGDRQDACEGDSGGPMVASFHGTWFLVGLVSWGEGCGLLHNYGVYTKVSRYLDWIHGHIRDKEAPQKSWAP
protocolDetails: SPR
experimentalReadout: Kd (nM)
Numbers only here, please. The scale is nM.

TPP-26926 (antibody, V domains shown) VH: EVQLVESGGGLVQPGGSLRLSCAASGFTFSNYYMSWVRQAPGKGLEWVGDIRLKSNNYEKHYAESVKGRFTISRDDSKNSLYLQMNSLKTEDTAVYYCAREGDYFDYWGQGTLVTVSS VL: DIVLTQSPASLAVSPGQRATITCKASQSVSSFGATFMHWYQQKPGQPPKLLIYLASNRASGVPDRFSGSGSGTDFTLKISRVEAEDVGVYYCQQNNEDPYTFGQGTKLEIKR = 30.5
TPP-26874 (antibody, V domains shown) VH: EVQLVESGGGLVQPGGSLRLSCAASGFTFSNYYMNWVRQAPGKGLEWVSYISSSSSTIYYADSVKGRFTISRDDSKNSLYLQMNSLKTEDTAVYYCAREGDYFDYWGQGTLVTVSS VL: DIVLTQSPASLAVSPGQRATITCKASQSVSSFGATFMHWYQQKPGQPPKLLIYLASNRASGVPDRFSGSGSGTDFTLKISRVEAEDVGVYYCQQNNEDPYTFGQGTKLEIKR = 13.2
TPP-26925 (antibody, V domains shown) VH: EVQLVESGGGLVQPGGSLRLSCAASGFTFSNYYMSWVRQAPGKGLEWVGDIRLKSNNYEKHYAESVKGRFTISRDDSKNSLYLQMNSLKTEDTAVYYCAREGDYFDYWGQGTLVTVSS VL: DIVLTQSPASLAVSPGQRATITCKASQSVSSFGATFMHWYLQKPGQSPQLLIYLASNRASGVPDRFSGSGSGTDFTLKISRVEAEDVGVYYCQQNNEDPYTFGQGTKLEIKR = 27.9
TPP-26869 (antibody, V domains shown) VH: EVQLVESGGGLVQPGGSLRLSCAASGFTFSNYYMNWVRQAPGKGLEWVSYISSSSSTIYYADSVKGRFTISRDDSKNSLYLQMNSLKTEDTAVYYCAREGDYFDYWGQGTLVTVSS VL: EIVLTQSPGTLSLSPGERATLSCRASQSVSSFGATFMHWYQQKPGQPPKLLIYLASNRASGVPDRFSGSGSGTDFTLTINPVEADDTANYYCQQNNEDPYTFGQGTKLEIKR = 13.5

Kindly note the recorded Kd for TPP-26872 (antibody, V domains shown) VH: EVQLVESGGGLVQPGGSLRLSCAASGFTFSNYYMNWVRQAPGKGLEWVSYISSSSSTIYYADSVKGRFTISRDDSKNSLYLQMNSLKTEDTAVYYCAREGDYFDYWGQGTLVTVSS VL: DIVLTQSPASLAVSPGQRATITCKASQSVSSFGATFMHWYLQKPGQSPQLLIYLASNRASGVPDRFSGSGSGTDFTLTINPVEADDTANYYCQQNNEDPYTFGQGTKLEIKR , which is 12.8

Kindly note the recorded Kd for TPP-26870 (antibody, V domains shown) VH: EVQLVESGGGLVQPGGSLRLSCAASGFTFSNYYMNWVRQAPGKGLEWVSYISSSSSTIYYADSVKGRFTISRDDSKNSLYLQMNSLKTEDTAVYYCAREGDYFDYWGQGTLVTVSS VL: EIVLTQSPGTLSLSPGERATLSCRASQSVSSFGATFMHWYQQKPGQPPKLLIYLASNRASGVPDRFSGSGSGTDFTLKISRVEAEDVGVYYCQQNNEDPYTFGQGTKLEIKR , which is 12.9

Kindly note the recorded Kd for TPP-26882 (antibody, V domains shown) VH: EVQLVESGGGLVQPGGSLRLSCAASGFTFSNYYMNWVRQAPGKGLEWVGRIKSKTDGGTTDYAAPVKGRFTISRDDSKNSLYLQMNSLKTEDTAVYYCAREGDYFDYWGQGTLVTVSS VL: EIVLTQSPGTLSLSPGERATLSCRASQSVSSFGATFMHWYQQKPGQPPKLLIYLASNRASGVPDRFSGSGSGTDFTLTINPVEADDTANYYCQQNNEDPYTFGQGTKLEIKR , which is 169

Kindly note the recorded Kd for TPP-26864 (antibody, V domains shown) VH: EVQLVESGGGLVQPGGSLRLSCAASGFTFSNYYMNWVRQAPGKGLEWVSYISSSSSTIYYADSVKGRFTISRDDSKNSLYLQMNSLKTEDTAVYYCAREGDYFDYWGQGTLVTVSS VL: EIVLTQSPGTLSLSPGERATLSCRASESVDSFGATFMHWYLQKPGQSPQLLIYLASNRASGVPDRFSGSGSGTDFTLKISRVEAEDVGVYYCQQNNEDPYTFGQGTKLEIKR , which is 8.79

Kindly note the recorded Kd for TPP-26935 (antibody, V domains shown) VH: EVQLVESGGGLVQPGGSLRLSCAASGFTFSNYYINWVRQAPGKGLEWVGDIRLKSNNYEKHYAESVKGRFTISRDDSKNSLYLQMNSLKTEDTAVYYCAREGDYFDYWGQGTLVTVSS VL: EIVLTQSPGTLSLSPGERATLSCRASQSVSSFGATFMHWYQQKPGQPPKLLIYLASNRASGVPDRFSGSGSGTDFTLKISRVEAEDVGVYYCQQNNEDPYTFGQGTKLEIKR , which is 18.6

Kindly note the recorded Kd for TPP-26862 (antibody, V domains shown) VH: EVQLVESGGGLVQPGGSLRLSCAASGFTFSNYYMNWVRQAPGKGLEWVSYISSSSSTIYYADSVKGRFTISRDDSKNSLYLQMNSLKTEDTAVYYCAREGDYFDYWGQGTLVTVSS VL: DIVMTQSPLSLPVTPGEPASISCRSSESVDSFGATFMHWYQQKPGQPPKLLIYLASNRASGVPDRFSGSGSGTDFTLKISRVEAEDVGVYYCQQNNEDPYTFGQGTKLEIKR , which is 13.5

Kindly note the recorded Kd for TPP-26894 (antibody, V domains shown) VH: EVQLVESGGGLVQPGGSLRLSCAASGFTFSNYYMNWVRQAPGQGLEWMGRIIPILGIANYAQKFQGRFTISRDDSKNSLYLQMNSLKTEDTAVYYCAREGDYFDYWGQGTLVTVSS VL: EIVLTQSPGTLSLSPGERATLSCRASQSVSSFGATFMHWYLQKPGQSPQLLIYLASNRASGVPDRFSGSGSGTDFTLKISRVEAEDVGVYYCQQNNEDPYTFGQGTKLEIKR , which is 142
